Target: α-glucosidase (Saccharomyces cerevisiae, UniProt P53341)
Sequence (P53341 whole entry): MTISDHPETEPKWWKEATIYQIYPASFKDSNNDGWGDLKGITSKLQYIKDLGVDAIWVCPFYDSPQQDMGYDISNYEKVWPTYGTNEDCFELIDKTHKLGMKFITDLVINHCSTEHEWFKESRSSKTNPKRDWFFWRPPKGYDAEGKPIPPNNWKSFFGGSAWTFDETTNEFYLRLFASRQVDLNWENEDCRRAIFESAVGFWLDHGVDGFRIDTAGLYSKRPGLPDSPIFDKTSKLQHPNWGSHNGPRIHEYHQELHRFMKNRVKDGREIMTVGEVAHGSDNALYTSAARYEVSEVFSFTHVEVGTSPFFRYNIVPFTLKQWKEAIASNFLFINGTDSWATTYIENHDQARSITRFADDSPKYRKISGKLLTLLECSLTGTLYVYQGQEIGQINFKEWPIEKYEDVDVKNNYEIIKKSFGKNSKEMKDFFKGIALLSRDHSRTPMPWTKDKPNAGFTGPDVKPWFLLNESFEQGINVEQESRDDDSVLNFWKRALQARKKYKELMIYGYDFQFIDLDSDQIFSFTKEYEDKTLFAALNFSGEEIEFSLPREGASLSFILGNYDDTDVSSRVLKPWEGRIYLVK
Assay: α-glucosidase inhibition activity (PNPG)
Assay type: biochemical
Conditions: synthetic peptides; enzyme 0.2 U/mL, preincubation 25 °C 10 min, PNPG 5 mmol/L, 30 min 37 °C, 405 nm; mean ± SD, three repetitions
Experimental: Shiitake mushrooms were acquired from a farmers’ market. […] A quantity of 100 μL α-glucosidase solution (0.2 U/mL) was premixed with 50 μL sample solution in the enzyme label plate, and incubated at 25 °C for 10 min; 50 μL of PNPG (5 mmol/L) solution was added to start reactions, and incubation was continued for another 30 min at 37 °C. […] The absorbance value was measured at 405 nm using an AMR-100 automatic enzyme label analyzer. […]
pIC50: −log10 of the molar value. Residues, ends and D or L forms follow the SMILES beside them.
# key: entry, value: pIC50
measured_property: pIC50

compound | measurement
CC(C)C[C@H](NC(=O)[C@H](CC(=O)O)NC(=O)[C@H](CC(=O)O)NC(=O)[C@@H](N)CCCCN)C(=O)N[C@@H](CCCNC(=N)N)C(=O)N[C@@H](CO)C(=O)N1CCC[C@H]1C(=O)O [KDDLRSP] (H-KDDLRSP-OH) | 3.26
CC(C)C[C@H](NC(=O)[C@H](CCCCN)NC(=O)[C@@H]1CCCN1C(=O)[C@H](CCC(=O)O)NC(=O)CNC(=O)[C@@H](N)CCC(=O)O)C(=O)N1CCC[C@H]1C(=O)O [EGEPKLP] (H-EGEPKLP-OH) | 3.30
CC(C)C[C@H](NC(=O)[C@H](CCCCN)NC(=O)CNC(=O)[C@H](Cc1ccc(O)cc1)NC(=O)[C@H](CC(=O)O)NC(=O)[C@@H](N)CC(C)C)C(=O)O [LDYGKL] (H-LDYGKL-OH) | 3.16
CC(C)C[C@H](NC(=O)[C@H](CCCCN)NC(=O)[C@H](CC(C)C)NC(=O)[C@H](CCC(=O)O)NC(=O)[C@@H]1CCCN1C(=O)[C@@H](N)[C@@H](C)O)C(=O)O [TPELKL] (H-TPELKL-OH) | 3.34

Source: paper PMC10340682
